# experimental target: human TRPM8 (Homo sapiens, UniProt Q7Z2W7)
# Construct: expressed in transfected cells; host or cells: Chinese hamster ovary (CHO) cells, T-REx tetracycline-inducible system, co-transfected with aequorin
# Sequence (Q7Z2W7 whole entry): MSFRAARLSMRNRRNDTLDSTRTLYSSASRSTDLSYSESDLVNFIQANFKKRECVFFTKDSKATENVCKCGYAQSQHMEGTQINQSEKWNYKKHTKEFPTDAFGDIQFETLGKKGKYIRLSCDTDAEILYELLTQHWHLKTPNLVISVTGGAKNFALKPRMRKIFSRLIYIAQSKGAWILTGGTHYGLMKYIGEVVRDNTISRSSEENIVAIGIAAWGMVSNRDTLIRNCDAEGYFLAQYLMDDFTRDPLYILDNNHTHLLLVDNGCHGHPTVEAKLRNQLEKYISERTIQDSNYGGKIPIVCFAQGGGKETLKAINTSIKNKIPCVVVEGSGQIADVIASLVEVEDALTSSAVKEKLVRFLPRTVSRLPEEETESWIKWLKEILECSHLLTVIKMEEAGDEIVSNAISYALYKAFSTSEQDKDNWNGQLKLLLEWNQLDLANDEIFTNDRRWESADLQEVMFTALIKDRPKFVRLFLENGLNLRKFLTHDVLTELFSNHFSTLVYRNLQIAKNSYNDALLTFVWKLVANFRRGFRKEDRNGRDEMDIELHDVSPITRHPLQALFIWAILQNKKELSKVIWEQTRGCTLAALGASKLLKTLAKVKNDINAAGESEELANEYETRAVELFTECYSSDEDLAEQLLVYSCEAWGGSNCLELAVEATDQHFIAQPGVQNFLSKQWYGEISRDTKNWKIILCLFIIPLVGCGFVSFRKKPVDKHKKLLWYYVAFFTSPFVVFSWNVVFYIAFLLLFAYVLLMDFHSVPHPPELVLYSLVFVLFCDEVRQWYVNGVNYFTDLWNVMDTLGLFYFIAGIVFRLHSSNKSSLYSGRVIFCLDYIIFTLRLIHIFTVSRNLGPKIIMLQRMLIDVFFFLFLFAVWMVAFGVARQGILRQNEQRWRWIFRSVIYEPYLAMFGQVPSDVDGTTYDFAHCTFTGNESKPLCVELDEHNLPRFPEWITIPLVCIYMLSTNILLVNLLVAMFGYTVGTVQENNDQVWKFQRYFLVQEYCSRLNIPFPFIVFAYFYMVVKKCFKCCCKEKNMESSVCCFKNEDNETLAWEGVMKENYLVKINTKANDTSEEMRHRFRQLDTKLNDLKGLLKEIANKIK
# procedure details: Luminescence readout assay for measuring intracellular calcium, icilin activation
# Format: cell-based
# condition label: CHO cells expressing human TRPM8, aequorin luminescence, 1 μM icilin activation; read-out: hTRPM8 IC50
Recorded log10(IC50) values for a group of compounds are listed next.
Please keep in mind that the values are log10 of IC50 expressed in nM.

Ask: Please give the measured log10(IC50) for this compound: COc1cccc(C(=O)N[C@@H](c2ccc(C(F)(F)F)cc2)c2ncccc2C(F)(F)F)c1
Result: 1.90

Ask: Please give the measured log10(IC50) for this compound: Cc1ccc([C@H](NC(=O)c2ccc(=O)[nH]c2)c2ncccc2F)cc1
Result: 2.43

Ask: Please give the measured log10(IC50) for this compound: COc1cccc(C(=O)NC(c2ccc(C(F)(F)F)cc2)c2ncccc2F)c1 (stereo not shown)
Result: 2.08

----------
# experimental target: human TRPM8 (Homo sapiens)
# Construct: expressed in transfected cells; host or cells: Chinese hamster ovary (CHO) cells, T-REx tetracycline-inducible system, co-transfected with aequorin
# procedure details: Luminescence readout assay for measuring intracellular calcium, icilin activation
# Format: cell-based
# condition label: CHO cells expressing human TRPM8, aequorin luminescence, 1 μM icilin activation; read-out: hTRPM8 IC50
Recorded pIC50 values for a group of compounds are listed next.
The read-out pIC50 is expressed as -log10 of concentration in moles per litre.

compound="O=C(N[C@@H](c1ccc(C(F)(F)F)cc1)c1ncccc1C(F)(F)F)c1cccc(Cl)c1 [Example 208]" observed_result=7.38

Ask: Please give the measured pIC50 for this compound: COc1ccc(C(=O)N[C@@H](c2ccc(C(F)(F)F)cc2)c2ncccc2C(F)(F)F)nn1 [Example 37]
Result: 6.84

Ask: Please give the measured pIC50 for this compound: O=C(N[C@@H](c1ccc(C(F)(F)F)cc1)c1ncccc1F)c1ccc2[nH]c(=O)ccc2c1 [Example 104]
Result: 8.21

Ask: Please give the measured pIC50 for this compound: CN(C)c1ccc(C(=O)N[C@@H](c2ccc(C(F)(F)F)cc2)c2ncccc2C(F)(F)F)cc1 [Example 196]
Result: 7.17

Ask: Please give the measured pIC50 for this compound: CC(=O)NC(C)C(=O)N[C@@H](c1ccc(C(F)(F)F)cc1)c1ncccc1C(F)(F)F (stereo partly shown) [Example 162]
Result: 5.36

Ask: Please give the measured pIC50 for this compound: Cc1cc(C(=O)N[C@@H](c2ccc(OC(F)(F)F)c(F)c2)c2ncccc2F)c[nH]c1=O [Example 403]
Result: 7.75

Ask: Please give the measured pIC50 for this compound: O=C(NC(c1ccc(OC(F)(F)F)c(F)c1)c1cc(F)ccc1F)c1ccc(=O)[nH]c1 (stereo not shown) [Example 414]
Result: 6.82

Ask: Please give the measured pIC50 for this compound: COc1ccc([C@H](NC(=O)c2ccc(=O)[nH]c2)c2ncccc2F)cc1F [Example 336]
Result: 6.87

Ask: Please give the measured pIC50 for this compound: COc1cccnc1[C@@H](NC(=O)c1ccc2cccnc2c1)c1ccc(C(F)(F)F)cc1 [Example 28]
Result: 6.71

----------
# experimental target: human TRPM8 (Homo sapiens, UniProt Q7Z2W7)
# Construct: expressed in transfected cells; host or cells: Chinese hamster ovary (CHO) cells, T-REx tetracycline-inducible system, co-transfected with aequorin
# procedure details: Luminescence readout assay for measuring intracellular calcium, icilin activation
# Assay type: cell-based
# condition label: CHO cells expressing human TRPM8, aequorin luminescence, 1 μM icilin activation; read-out: hTRPM8 IC50
Recorded IC50 values for a group of compounds are listed next.
# number only, unit nM dropped from output

Use these answered entries as a reference point.
chem_smiles=O=C(N[C@@H](c1ccc(C(F)(F)F)cc1)c1ncccc1C(F)(F)F)c1ccc2c(c1)C(=O)NC2=O observed_result=41.4
chem_smiles=CC#Cc1cccnc1[C@@H](NC(=O)c1ccc2ncccc2c1)c1ccc(C(F)(F)F)cc1 observed_result=17.8
chem_smiles=O=C(Cc1ccccc1)N[C@@H](c1ccc(C(F)(F)F)cc1)c1ncccc1C(F)(F)F observed_result=230
chem_smiles=O=C(N[C@@H](c1ccc(OC(F)(F)F)c(F)c1)c1ncccc1F)c1cc2n(n1)CCCO2 observed_result=38.5
chem_smiles=O=C(N[C@@H](c1ccc(C(F)(F)F)cc1)c1ncccc1C(F)(F)F)c1cccc(F)c1 observed_result=41.4
chem_smiles=Cn1cc(C(=O)N[C@@H](c2ccc(Cl)c(F)c2)c2ncccc2F)ccc1=O observed_result=102
chem_smiles=O=C(N[C@@H](c1ccc(C(F)(F)F)cc1)c1ncccc1C(F)(F)F)c1cccc(OC(F)(F)F)c1 observed_result=137

Continue with the next compound.
Ask: Please give the measured IC50 for this compound: Nc1cnccc1C(=O)N[C@@H](c1ccc(C(F)(F)F)cc1)c1ncccc1C(F)(F)F
Result: 65.9

----------
Recorded pIC50 values for a group of compounds are listed next.
# experimental target: human TRPM8 (Homo sapiens, UniProt Q7Z2W7)
# Construct: expressed in transfected cells; host or cells: Chinese hamster ovary (CHO) cells, T-REx tetracycline-inducible system, co-transfected with aequorin
# procedure details: Luminescence readout assay for measuring intracellular calcium, icilin activation
# Assay type: cell-based
# condition label: CHO cells expressing human TRPM8, aequorin luminescence, 1 μM icilin activation; read-out: hTRPM8 IC50
The read-out pIC50 is expressed as -log10 of concentration in moles per litre.

Use these answered entries as a reference point.
compound="COc1ccc([C@H](NC(=O)c2ccc(=O)[nH]c2)c2ncccc2F)cc1 [Example 342]" experimental_target="human TRPM8 (Homo sapiens, UniProt Q7Z2W7)" observed_result=6.59
compound="CC(C)c1ccc(C(=O)N[C@@H](c2ccc(C(F)(F)F)cc2)c2ncccc2C(F)(F)F)cc1 [Example 127]" experimental_target="human TRPM8 (Homo sapiens, UniProt Q7Z2W7)" observed_result=6.23
compound="CC(C)(C)OC(=O)N1CC(CC(=O)N[C@@H](c2ccc(C(F)(F)F)cc2)c2ncccc2C(F)(F)F)C1 [Example 229]" experimental_target="human TRPM8 (Homo sapiens, UniProt Q7Z2W7)" observed_result=6.45
compound="CN(C)c1ccc(C(=O)N[C@@H](c2ccc(C(F)(F)F)cc2)c2ncccc2C(F)(F)F)cn1 [Example 262]" experimental_target="human TRPM8 (Homo sapiens, UniProt Q7Z2W7)" observed_result=6.94
compound="O=C(N[C@@H](c1ccc(OC(F)(F)F)cc1)c1ncccc1F)c1c[nH]c(=O)cn1 [Example 354]" experimental_target="human TRPM8 (Homo sapiens, UniProt Q7Z2W7)" observed_result=7.17
compound="O=C(N[C@@H](c1ccc(C(F)(F)F)cc1)c1ncccc1C(F)(F)F)c1ccno1 [Example 220]" experimental_target="human TRPM8 (Homo sapiens, UniProt Q7Z2W7)" observed_result=6.79

Ask: What reported pIC50 corresponds to O=C(N[C@@H](c1ccc(C(F)(F)F)cc1)c1ncccc1C(F)(F)F)c1ccc2ncsc2c1 [Example 239] on human TRPM8 (Homo sapiens, UniProt Q7Z2W7)?
Result: 7.80

Ask: What reported pIC50 corresponds to O=C(N[C@@H](c1ccc(C(F)(F)F)cc1)c1ncccc1C(F)(F)F)c1ccc2nccc(O)c2c1 [Example 109, 2,2,2-trifluoroacetate] on human TRPM8 (Homo sapiens, UniProt Q7Z2W7)?
Result: 7.19

Ask: What reported pIC50 corresponds to O=C(N[C@@H](c1ccc(I)cc1)c1ncccc1C(F)(F)F)c1ccc(=O)[nH]c1 (stereo in doubt) [Example 376] on human TRPM8 (Homo sapiens, UniProt Q7Z2W7)?
Result: 7.28

Ask: What reported pIC50 corresponds to O=C1Cc2cc(C(=O)N[C@@H](c3ccc(C(F)(F)F)cc3)c3ncccc3F)ccc2N1 [Example 70] on human TRPM8 (Homo sapiens, UniProt Q7Z2W7)?
Result: 7.82

Ask: What reported pIC50 corresponds to O=C(N[C@@H](c1ccc(OC(F)(F)F)cc1)c1ncccc1F)c1ccc(=O)[nH]c1 [Example 1] on human TRPM8 (Homo sapiens, UniProt Q7Z2W7)?
Result: 8.01

Ask: What reported pIC50 corresponds to Cc1ccc(C(NC(=O)c2ccc(=O)[nH]c2)c2ccc(OC(F)(F)F)c(F)c2)nc1 (stereo not drawn) [Example 424] on human TRPM8 (Homo sapiens, UniProt Q7Z2W7)?
Result: 7.04

Ask: What reported pIC50 corresponds to O=C1CCC(C(=O)N[C@@H](c2ccc(C(F)(F)F)cc2)c2ncccc2C(F)(F)F)CN1 (stereo partly drawn) [Example 65] on human TRPM8 (Homo sapiens, UniProt Q7Z2W7)?
Result: 6.61

Ask: What reported pIC50 corresponds to O=C(O)C1CCC(C(=O)N[C@@H](c2ccc(C(F)(F)F)cc2)c2ncccc2C(F)(F)F)CC1 (stereo partly drawn) [Example 244] on human TRPM8 (Homo sapiens, UniProt Q7Z2W7)?
Result: 5.47

Ask: What reported pIC50 corresponds to N#Cc1cccc(C(=O)N[C@@H](c2ccc(C(F)(F)F)cc2)c2ncccc2F)c1 [Example 184] on human TRPM8 (Homo sapiens, UniProt Q7Z2W7)?
Result: 7.28
